The values you see were collected from ChEMBL document CHEMBL4732208.

# System: Aspergillus
# PROTOCOL: Antifungal activity against Aspergillus SRX7729186 STG-93W assessed as reduction in fungal growth at 0.1 to 3.5 mM measured for 24 days by drop dilution assay relative to control
# Format: functional
# SETTINGS: dose 0.1-3.5 mM, time 24.0 day
Calls of active or inactive are those of the source. The calls are words filed in the database; no cut-off is given here.
Lab note: assign the record to one of YES (active), NO (inactive)

CCCCCCCCCCNc1nc(=O)n([C@H]2C[C@H](OC(=O)OCCOCCOCCO)[C@@H](CO)O2)cc1C :: NO
Nc1nc(=O)[nH]cc1F :: YES
CCCCCCCCCCNc1nc(=O)n([C@H]2C[C@H](O)[C@@H](CO)O2)cc1C :: NO
CCCCCCCCCCCCNc1nc(=O)n([C@H]2C[C@H](O)[C@@H](CO)O2)cc1C :: YES

Query: Just curious, what result did "CCCCCCCCNc1nc(=O)n([C@H]2C[C@H](O)[C@@H](CO)O2)cc1C" get here?
Reply: YES
